The measured values listed here are drawn from ChEMBL document CHEMBL5346964.

# Experiment notes: Tmax in cynomolgus monkey at 5 mg/kg, po measured upto 24 hrs by LC/MS-MS analysis
# Type: ADME, organism-based, Macaca fascicularis
# Condition label: in vivo
Measurement kind: Tmax (h)
Give bare numbers, in h.

Exercise: Consider the molecule Cc1ccc([C@@H]2C[C@H](CN[C@H](C)c3cccc4ccccc34)Oc3ccccc32)cc1C(=O)O.Cl and give its recorded Tmax.
Solution: 1.7

----------
# Experiment notes: Protein binding in rat plasma incubated for 16 hrs under shaking condition by rapid equilibrium dialysis based LC-MS/MS method
# Format: ADME, cell-free
# Condition label: read-out: PPB
Measurement kind: fraction unbound at 16 h

Exercise: Consider the compound Cc1ccc([C@@H]2C[C@H](CN[C@H](C)c3cccc4ccccc34)Oc3ccccc32)cc1C(=O)O.Cl and give its recorded fraction unbound at 16 h.
Solution: < 0.01

----------
# Experiment notes: Kinetic solubility of compound in water upto 500 uM measured after 16 hrs under shaking condition by UV-visible method
# Type: physicochemical
# Condition label: read-out: Kinetic_solubility
Measurement kind: solubility kinetic at 16 h, 500 µM

Exercise: Consider the compound Cc1ccc([C@@H]2C[C@H](CN[C@H](C)c3cccc4ccccc34)Oc3ccccc32)cc1C(=O)O.Cl and give its recorded solubility kinetic at 16 h, 500 µM.
Solution: > 300 µM

----------
# Experiment notes: Metabolic stability in human liver S9 fraction measured upto 60 mins by LC-MS/MS method
# Format: ADME, subcellular
# Condition label: read-out: Stability
Measurement kind: remaining at 1 h

Exercise: Consider the molecule Cc1ccc([C@@H]2C[C@H](CN[C@H](C)c3cccc4ccccc34)Oc3ccccc32)cc1C(=O)O.Cl and give its recorded remaining at 1 h.
Solution: > 80%

----------
# Experiment notes: Half life in Beagle dog at 1 mg/kg, iv measured upto 24 hrs by LC/MS-MS analysis
# Format: ADME, organism-based, Canis lupus familiaris
# Condition label: in vivo
Measurement kind: half-life
Number first, unit second: that is the form wanted.

Exercise: Consider the molecule Cc1ccc([C@@H]2C[C@H](CN[C@H](C)c3cccc4ccccc34)Oc3ccccc32)cc1C(=O)O.Cl and give its recorded half-life.
Solution: 300 min

----------
# Experiment notes: Tmax in Sprague-Dawley rat at 10 mg/kg, po measured upto 24 hrs by LC/MS-MS analysis
# Format: ADME, organism-based
# Condition label: in vivo
Measurement kind: Tmax (min)
Give bare numbers, in min.

Exercise: Consider the molecule Cc1ccc([C@@H]2C[C@H](CN[C@H](C)c3cccc4ccccc34)Oc3ccccc32)cc1C(=O)O.Cl and give its recorded Tmax.
Solution: 36

----------
# Experiment notes: Oral bioavailability in Sprague-Dawley rat at 10 mg/kg measured upto 24 hrs by LC/MS-MS analysis
# Format: ADME, organism-based
# Condition label: in vivo
Measurement kind: bioavailability

Exercise: Consider the compound Cc1ccc([C@@H]2C[C@H](CN[C@H](C)c3cccc4ccccc34)Oc3ccccc32)cc1C(=O)O.Cl and give its recorded bioavailability.
Solution: 99%

----------
# Experiment notes: Kinetic solubility of compound in FeSSIF upto 500 uM measured after 16 hrs under shaking condition by UV-visible method
# Assay type: physicochemical
# Condition label: read-out: Kinetic_solubility
Measurement kind: solubility kinetic at 16 h, 500 µM

Exercise: Consider the compound Cc1ccc([C@@H]2C[C@H](CN[C@H](C)c3cccc4ccccc34)Oc3ccccc32)cc1C(=O)O.Cl and give its recorded solubility kinetic at 16 h, 500 µM.
Solution: > 300 µM

----------
# Experiment notes: AUClast in Sprague-Dawley rat at 10 mg/kg, po administered as solution measured upto 24 hrs by LC-MS/MS analysis
# Format: ADME, organism-based
# Design: dose 10 mg/kg, time < 24 hrs, route po
# Condition label: in vivo
Measurement kind: AUC(0-t) at 24 h (µM·h)
Numbers only, in µM·h.

Exercise: Consider the compound Cc1ccc([C@@H]2C[C@H](CN[C@H](C)c3cccc4ccccc34)Oc3ccccc32)cc1C(=O)O.Cl and give its recorded AUC(0-t) at 24 h.
Solution: 71

----------
# Experiment notes: Kinetic solubility of compound upto 500 uM at pH 9 measured after 16 hrs under shaking condition by UV-visible method
# Assay type: physicochemical
# Condition label: buffer, read-out: Kinetic_solubility
Measurement kind: solubility kinetic at 16 h, 500 µM

Exercise: Consider the compound Cc1ccc([C@@H]2C[C@H](CN[C@H](C)c3cccc4ccccc34)Oc3ccccc32)cc1C(=O)O.Cl and give its recorded solubility kinetic at 16 h, 500 µM.
Solution: > 200 µM

----------
Task for the reader: assign each of the following compounds its reported EC50.
# Tested target: Extracellular calcium-sensing receptor (Homo sapiens, UniProt P41180)
# Sequence (P41180 whole entry): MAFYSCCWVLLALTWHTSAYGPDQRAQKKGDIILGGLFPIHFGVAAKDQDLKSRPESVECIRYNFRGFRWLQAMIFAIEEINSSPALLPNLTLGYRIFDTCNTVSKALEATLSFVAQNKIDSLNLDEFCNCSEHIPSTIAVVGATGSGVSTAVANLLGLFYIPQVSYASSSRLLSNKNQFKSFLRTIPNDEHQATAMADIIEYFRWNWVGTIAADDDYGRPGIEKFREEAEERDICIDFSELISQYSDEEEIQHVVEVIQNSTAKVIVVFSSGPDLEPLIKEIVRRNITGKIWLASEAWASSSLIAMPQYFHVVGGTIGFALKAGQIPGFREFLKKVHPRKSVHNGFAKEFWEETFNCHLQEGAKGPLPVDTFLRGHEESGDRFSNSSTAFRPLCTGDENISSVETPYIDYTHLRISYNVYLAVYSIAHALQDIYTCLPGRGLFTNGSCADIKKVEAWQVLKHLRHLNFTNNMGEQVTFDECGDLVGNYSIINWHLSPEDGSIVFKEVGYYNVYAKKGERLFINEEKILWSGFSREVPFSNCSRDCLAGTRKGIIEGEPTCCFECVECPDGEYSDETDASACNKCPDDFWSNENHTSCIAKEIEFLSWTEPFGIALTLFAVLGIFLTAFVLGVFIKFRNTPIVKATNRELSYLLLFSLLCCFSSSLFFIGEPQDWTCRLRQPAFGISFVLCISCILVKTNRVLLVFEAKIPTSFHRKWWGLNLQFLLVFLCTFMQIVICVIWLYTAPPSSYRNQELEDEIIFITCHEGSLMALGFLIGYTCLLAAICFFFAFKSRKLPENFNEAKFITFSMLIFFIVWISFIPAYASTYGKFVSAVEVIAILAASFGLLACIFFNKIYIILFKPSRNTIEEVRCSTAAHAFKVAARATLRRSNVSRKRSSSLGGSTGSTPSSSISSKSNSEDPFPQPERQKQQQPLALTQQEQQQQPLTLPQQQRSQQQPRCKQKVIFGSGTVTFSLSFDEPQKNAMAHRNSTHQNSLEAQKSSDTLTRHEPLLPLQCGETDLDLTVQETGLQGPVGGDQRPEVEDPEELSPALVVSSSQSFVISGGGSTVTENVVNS
# Experiment notes: Agonist activity at human CaSR expresssed in HEK293 cells in presence of glucose by Fluo4NW dye based FLIPR assay
# Format: functional, cell-based
# Condition label: read-out: EC50
Number first, unit second: that is the form wanted.

Compound | Tested target | EC50
C[C@@H](NCC1CN(C(=O)c2ccccc2)c2ccccc2O1)c1cccc2ccccc12 (mixture of isomers; form 2) | Extracellular calcium-sensing receptor (Homo sapiens, UniProt P41180) | 90 nM
Cc1ccc([C@H]2C[C@@H](CN[C@H](C)c3cccc4ccccc34)Oc3ccccc32)cc1C(=O)O | Extracellular calcium-sensing receptor (Homo sapiens, UniProt P41180) | 3.7 nM
Cc1c(C(=O)O)cccc1N1CC(CN[C@H](C)c2cccc3ccccc23)Oc2ccccc21.Cl (mixture of isomers; form 2) | Extracellular calcium-sensing receptor (Homo sapiens, UniProt P41180) | 49.5 nM

Next:
Exercise: Consider the compound C[C@@H](NCC1CN(c2cccc(OCC(=O)O)c2)c2ccccc2O1)c1cccc2ccccc12 (some centres undefined) and give its recorded EC50.
Solution: 36.4 nM

----------
# Experiment notes: Toxicity in rat assessed as maximum tolerated dose
# Condition label: in vivo
Measurement kind: MTD (mg/kg)
Answers are plain numbers, in mg/kg.

Exercise: Consider the compound Cc1ccc([C@@H]2C[C@H](CN[C@H](C)c3cccc4ccccc34)Oc3ccccc32)cc1C(=O)O.Cl and give its recorded MTD.
Solution: 1000

----------
# Experiment notes: Half life in Sprague-Dawley rat at 1 mg/kg, iv measured upto 24 hrs by LC/MS-MS analysis
# Format: ADME, organism-based
# Condition label: in vivo
Measurement kind: half-life (h)
Numbers only, in h.

Exercise: Consider the compound Cc1ccc([C@@H]2C[C@H](CN[C@H](C)c3cccc4ccccc34)Oc3ccccc32)cc1C(=O)O.Cl and give its recorded half-life.
Solution: 4

----------
# Experiment notes: AUC(0 to 24 hrs) in Sprague-Dawley rat at 100 mg/kg
# Type: ADME, organism-based
# Design: dose 100 mg/kg
# Condition label: in vivo
Measurement kind: AUC(0-t) (µM·h)
Give bare numbers, in µM·h.

Exercise: Consider the molecule Cc1ccc([C@@H]2C[C@H](CN[C@H](C)c3cccc4ccccc34)Oc3ccccc32)cc1C(=O)O.Cl and give its recorded AUC(0-t).
Solution: 426

----------
# Experiment notes: Volume of distribution at steady state in cynomolgus monkey at 1 mg/kg, iv measured upto 24 hrs by LC/MS-MS analysis
# Type: ADME, organism-based, Macaca fascicularis
# Condition label: in vivo, read-out: Vdss
Measurement kind: Vd (L/kg)
Numbers only, in L/kg.

Exercise: Consider the molecule Cc1ccc([C@@H]2C[C@H](CN[C@H](C)c3cccc4ccccc34)Oc3ccccc32)cc1C(=O)O.Cl and give its recorded Vd.
Solution: 20

----------
# Experiment notes: Kinetic solubility of compound upto 500 uM at pH 4 measured after 16 hrs under shaking condition by UV-visible method
# Assay type: physicochemical
# Condition label: buffer, read-out: Kinetic_solubility
Measurement kind: solubility kinetic at 16 h, 500 µM

Exercise: Consider the compound Cc1ccc([C@@H]2C[C@H](CN[C@H](C)c3cccc4ccccc34)Oc3ccccc32)cc1C(=O)O.Cl and give its recorded solubility kinetic at 16 h, 500 µM.
Solution: > 300 µM

----------
# Experiment notes: Metabolic stability in rat liver cytosol measured upto 60 mins by LC-MS/MS method
# Type: ADME, subcellular
# Condition label: read-out: Stability
Measurement kind: remaining at 1 h

Exercise: Consider the compound Cc1ccc([C@@H]2C[C@H](CN[C@H](C)c3cccc4ccccc34)Oc3ccccc32)cc1C(=O)O.Cl and give its recorded remaining at 1 h.
Solution: > 80%

----------
# Experiment notes: Plasma clearance in cynomolgus monkey at 1 mg/kg, iv measured upto 24 hrs by LC/MS-MS analysis
# Assay type: ADME, organism-based, Macaca fascicularis
Measurement kind: clearance (mL/min/kg)
Answers are plain numbers, in mL/min/kg.

Exercise: Consider the compound Cc1ccc([C@@H]2C[C@H](CN[C@H](C)c3cccc4ccccc34)Oc3ccccc32)cc1C(=O)O.Cl and give its recorded clearance.
Solution: 151

----------
# Experiment notes: AUC in Beagle dog at 5 mg/kg, po measured upto 24 hrs by LC/MS-MS analysis
# Type: ADME, organism-based, Canis lupus familiaris
# Set-up: dose 5 mg/kg, time < 24 hrs, route po
# Condition label: in vivo
Measurement kind: AUC at 24 h (µM·h)
Numbers only, in µM·h.

Exercise: Consider the compound Cc1ccc([C@@H]2C[C@H](CN[C@H](C)c3cccc4ccccc34)Oc3ccccc32)cc1C(=O)O.Cl and give its recorded AUC at 24 h.
Solution: 63
